I'd appreciate it if you could supply pKi values for the items below.
- measurement-target: Mcl-1 (Homo sapiens (Human), UniProt Q07820)
- Sequence (Q07820 172-327): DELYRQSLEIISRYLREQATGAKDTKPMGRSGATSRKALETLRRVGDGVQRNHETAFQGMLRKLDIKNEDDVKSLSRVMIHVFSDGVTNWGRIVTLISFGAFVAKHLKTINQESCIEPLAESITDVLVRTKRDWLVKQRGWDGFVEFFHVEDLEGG
- method-summary: Fluorescence polarization competition assay (FPCA), Mcl-1 / FITC-Bak BH3 peptide
- Format: binding
- condition-description: FPCA with FITC-Bak; Ki from IC50 by Nikolovska-Coleska equation; read-out: Mcl-1 Ki
Lab note: report pKi as minus log10 of the concentration in molar units, number only.

Exercise: Consider the compound shown here: CC(C)CN(c1ccc(C(=O)O)c(O)c1)S(=O)(=O)c1ccc(Br)cc1 [LC-5-012 13ae] What is its recorded pKi?
Key: 4.77

Exercise: Next compound up: `CC(C)CN(c1ccc(C(=O)O)cc1)S(=O)(=O)c1ccc(-c2ccccc2)cc1`
Key: 4.78

Exercise: Next compound up: CC(C)CN(c1ccc(C(=O)O)c(O)c1)S(=O)(=O)c1ccc(-c2ccccc2)cc1 [4jc117-4 13ac]
Key: 5.39

Exercise: Next compound up: `Cc1cc(Oc2ccc(S(=O)(=O)N(Cc3ccccc3)c3ccc(C(=O)NS(=O)(=O)c4ccc(NCC5CCOCC5)c([N+](=O)[O-])c4)c(O)c3)cc2)cc(C)c1Cl`
Key: 6.10

Exercise: Next compound up: `O=C(O)c1cc(S(=O)(=O)Nc2ccc(Cl)cc2)c2ccccc2c1O`
Key: 5.72

Exercise: Next compound up: CC(C)CN(c1ccc(O)c(C(=O)O)c1)S(=O)(=O)c1ccccc1 [JY-5-296 18ba]
Key: 4.33

Exercise: Next compound up: `Cc1cc(Oc2ccc(N(CC(C)C)S(=O)(=O)c3cc(C(=O)O)c(O)c4ccccc34)cc2)cc(C)c1Cl`
Key: 7.10

Exercise: Next compound up: `Cc1ccc(NS(=O)(=O)c2cc(C(=O)O)c(O)c3ccccc23)cc1`
Key: 4.46

Exercise: Next compound up: `CC(C)c1ccc(NS(=O)(=O)c2cc(C(=O)O)c(O)c3ccccc23)cc1`
Key: 5.41
